Test system: VA-ES-BJ
ASSAY_PROTOCOL: relative viability vs DMSO control (72 h) (fraction); higher = more viable cells
DETAILS: 0.1235 µM
TEST_READOUT: relative viability
Please give the numeric answer without any surrounding text.

The cases that follow already have their relative viability on record.
Cc1cc(C)c(/C=C2\C(=O)Nc3ccccc32)[nH]1; 0.922
CC1(C)CNc2cc(NC(=O)c3cccnc3NCc3ccncc3)ccc21; 1.01
CC(C)NC(=O)C1CCC(n2c(NC(=O)c3ccc(F)cc3)nc3ccc(CN4CCC(C(C)(C)O)CC4)cc32)CC1 (centres undefined); 1

Consider now this further compound.
Query: Requested read-out: relative viability. Entry: COc1cc2c(Oc3ccc4[nH]c(C)cc4c3F)ncnc2cc1OCCCN1CCCC1
Result: 1.09

----------
Overview of reported standardised AUC across a group of compounds:
Tested on: HT1080
ASSAY_PROTOCOL: standardised AUC of viability dose-response curve (72 h) (fraction (0-1)); higher = less growth inhibition (more resistant)
Reply: number alone, nothing else.

Example results:
CCCS(=O)(=O)Nc1ccc(F)c(C(=O)c2c[nH]c3ncc(-c4ccc(Cl)cc4)cc23)c1F; 0.983
Cc1ccc(NC(=O)c2ccc(CN3CCN(C)CC3)cc2)cc1Nc1nc(-c2cccnc2)cs1; 0.902
COc1cc2/c(=N/c3ccc(Br)cc3F)nc[nH]c2cc1OCC1CCN(C)CC1; 0.968
O=C(Nc1cnn2ccc(N3CCC[C@@H]3c3cc(F)ccc3F)nc12)N1CC[C@H](O)C1; 0.996
CC1(C)CNc2cc(NC(=O)c3cccnc3NCc3ccncc3)ccc21; 0.981
Cc1cc(C)c(/C=C2\C(=O)Nc3ccccc32)[nH]1; 0.983
C[C@@H]1COCCN1c1cc(-c2ccnn2C)c2ccnc(-c3ccn[nH]3)c2n1; 0.686
CO[C@H]1C[C@@H]2CC[C@@H](C)[C@@](O)(O2)C(=O)C(=O)N2CCCC[C@H]2C(=O)O[C@H]([C@H](C)C[C@@H]2CC[C@@H](OP(C)(C)=O)[C@H](OC)C2)CC(=O)[C@H](C)/C=C(\C)[C@@H](O)[C@@H](OC)C(=O)[C@H](C)C[C@H](C)/C=C/C=C/C=C/1C; 0.925
CC(C)NC(=O)C1CCC(n2c(NC(=O)c3ccc(F)cc3)nc3ccc(CN4CCC(C(C)(C)O)CC4)cc32)CC1 (configuration not stated); 0.952
CNC(=O)c1cc(Oc2ccc(NC(=O)Nc3ccc(Cl)c(C(F)(F)F)c3)c(F)c2)ccn1; 0.96

Query: Could you tell me which standardised AUC is on file for Cn1cnc2c(F)c(Nc3ccc(Br)cc3F)c(C(=O)NOCCO)cc21 ?
Result: 0.756

Query: Find the recorded standardised AUC belonging to C=CC(=O)N1CCC([C@@H]2CCNc3c(C(N)=O)c(-c4ccc(Oc5ccccc5)cc4)nn32)CC1 and report it.
Result: 0.987

Query: Field request: standardised AUC | item: CC(C)N1CCN(Cc2cnc(-c3cc(-c4cccc5[nH]ccc45)cc4[nH]ncc34)o2)CC1
Result: 0.996

Query: Consider the compound shown here: CNC(=O)c1ccc(-c2cnc3ncc(Cc4ccc5ncccc5c4)n3n2)cc1F What is its recorded standardised AUC?
Result: 0.976

Query: Give its standardised AUC value. Item: Cc1cc(Nc2ncnc3ccc(NC4=NC(C)(C)CO4)cc23)ccc1Oc1ccn2ncnc2c1
Result: 0.988

Query: Which standardised AUC is reported for this compound? CC(=O)Nc1cccc(-n2c(=O)n(C3CC3)c(=O)c3c(Nc4ccc(I)cc4F)n(C)c(=O)c(C)c32)c1
Result: 0.577

Query: What does the data say about its standardised AUC? Entry: Cc1nc(-c2cn3c(n2)-c2ccc(-c4cnn(C(C)(C)C(N)=O)c4)cc2OCC3)n(C(C)C)n1
Result: 0.989

----------
Here, each record is paired with measured relative viability data.
Test system: VA-ES-BJ
ASSAY_PROTOCOL: relative viability vs DMSO control (72 h) (fraction); higher = more viable cells
DETAILS: 0.00152 µM
Counter-ions that a name gives are not always drawn.
API note: the answer field is a bare number with no unit suffix.

Here's what some known entries look like.
Cc1ccc(NC(=O)c2ccc(CN3CCN(C)CC3)cc2)cc1Nc1nc(-c2cccnc2)cs1 [Masitinib]; 1.05
C[C@]1(O)C[C@@H](c2nc(-c3ccc4ccc(-c5ccccc5)nc4c3)c3c(N)nccn32)C1 [Linsitinib]; 1.05
Cn1cc(-c2cc3c(N4CCN(c5ncc([C@@](C)(N)c6ccc(F)cc6)cn5)CC4)ncnn3c2)cn1 [Avapritinib]; 1
COCc1c(-c2cc3cc(C)cc(OC)c3s2)c2c(N)ncnn2c1CN1CCNC(=O)C1 [Rogaratinib]; 1.05
COc1cccc2c1C(=O)c1c(O)c3c(c(O)c1C2=O)C[C@@](O)(C(=O)CO)C[C@@H]3O[C@H]1C[C@H](N)[C@H](O)[C@H](C)O1 [Doxorubicin Hydrochloride]; 1.03
Nc1cc(C(F)(F)F)c(-c2cc(N3CCOCC3)nc(N3CCOCC3)n2)cn1 [Buparlisib]; 0.999

--- query ---
Query: Recorded relative viability of N#CC[C@H](C1CCCC1)n1cc(-c2ncnc3[nH]ccc23)cn1 [Ruxolitinib] , please.
Result: 1

----------
// relative viability lookup, one value per entry
Test system: KHOS-240S
ASSAY_PROTOCOL: relative viability vs DMSO control (72 h) (fraction); higher = more viable cells
DETAILS: 0.00152 µM
Where a name gives a salt, the structure may show the parent alone.
# print the numeric value only

Worked cases, relative viability given:
Cc1ccc(NC(=O)c2ccc(CN3CCN(C)CC3)cc2)cc1Nc1nc(-c2cccnc2)cs1; 1.04
COc1cc2nccc(Oc3ccc(NC(=O)Nc4cc(C)on4)c(Cl)c3)c2cc1OC; 1.09
O=C(Nc1cnn2ccc(N3CCC[C@@H]3c3cc(F)ccc3F)nc12)N1CC[C@H](O)C1; 1.1
Cc1nc(NC(=O)N2CCC[C@H]2C(N)=O)sc1-c1ccnc(C(C)(C)C(F)(F)F)c1; 1.03

Query: // returns reported relative viability for input COc1c(OCCCN2CCOCC2)ccc2c1N=C(NC(=O)c1cnc(N)nc1)N1CCN=C21
Result: 1.06

Query: Entry under review: CCCS(=O)(=O)Nc1ccc(F)c(C(=O)c2c[nH]c3ncc(-c4ccc(Cl)cc4)cc23)c1F . Reported relative viability?
Result: 1.09

Query: So what does the record say about relative viability for C[C@@H]1COCCN1c1cc(-c2ccnn2C)c2ccnc(-c3ccn[nH]3)c2n1 ?
Result: 1.07

Query: Need relative viability, item Cc1nc(-c2cn3c(n2)-c2ccc(-c4cnn(C(C)(C)C(N)=O)c4)cc2OCC3)n(C(C)C)n1
Result: 1.01

Query: // relative viability lookup, key: Cc1cc(Nc2ncnc3ccc(NC4=NC(C)(C)CO4)cc23)ccc1Oc1ccn2ncnc2c1
Result: 1.09

Query: // lookup relative viability for COc1cccc2c1C(=O)c1c(O)c3c(c(O)c1C2=O)C[C@@](O)(C(=O)CO)C[C@@H]3O[C@H]1C[C@H](N)[C@H](O)[C@H](C)O1 [Doxorubicin Hydrochloride]
Result: 1.05

Query: Entry C=CC(=O)N1CCC[C@@H](n2nc(-c3ccc(Oc4ccccc4)cc3)c3c(N)ncnc32)C1 has what relative viability?
Result: 1.09

----------
System: A204
ASSAY_PROTOCOL: relative viability vs DMSO control (72 h) (fraction); higher = more viable cells
DETAILS: 0.00457 µM
Entries and their measured relative viability follow.
Returns: the value as a bare number; no unit string appended.

CC(C)(C)c1cc(NC(=O)Nc2ccc(-c3cn4c(n3)sc3cc(OCCN5CCOCC5)ccc34)cc2)no1; 1.08
Cc1ccc(F)c(NC(=O)Nc2ccc(-c3cccc4[nH]nc(N)c34)cc2)c1; 1.07
Cc1cc(Nc2ncnc3ccc(NC4=NC(C)(C)CO4)cc23)ccc1Oc1ccn2ncnc2c1; 1.1

Query: Notebook entry, A204 assay: relative viability of O=C(Nc1cnn2ccc(N3CCC[C@@H]3c3cc(F)ccc3F)nc12)N1CC[C@H](O)C1 = ?
Result: 1.06

Query: Recorded relative viability for CNC(=O)c1ccc(-c2cnc3ncc(Cc4ccc5ncccc5c4)n3n2)cc1F with A204, please?
Result: 1.08

----------
Tested on: SW1353
ASSAY_PROTOCOL: relative viability vs DMSO control (72 h) (fraction); higher = more viable cells
DETAILS: 10 µM
Quick reference: relative viability of the listed items.
Give your answer as a number; write no unit.

Answered examples (3):
Nc1cc(C(F)(F)F)c(-c2cc(N3CCOCC3)nc(N3CCOCC3)n2)cn1; 0.266
CN1CCC(COc2cnc(-c3cccc(Cn4nc(-c5cccc(C#N)c5)ccc4=O)c3)nc2)CC1; 0.573
COc1cc2/c(=N/c3ccc(Br)cc3F)nc[nH]c2cc1OCC1CCN(C)CC1; 0.0143

Here is another compound to look at.
Query: For the compound Cc1cc(Nc2ncnc3ccc(NC4=NC(C)(C)CO4)cc23)ccc1Oc1ccn2ncnc2c1 , what relative viability is on record?
Result: 0.936
